Test system: LOX IMVI melanoma
Test: NCI tumour cell line growth inhibition, 48 h
Measurement label: GI50

CS(=O)(=O)Nc1cc(-c2ccc3ncnc(Nc4ccc5c(cnn5Cc5cccc(F)c5)c4)c3c2)cnc1Cl | 400 nM
CCCCNCC(O)c1cc2c(Cl)cc(Cl)cc2c2cc(C(F)(F)F)ccc12 (stereo unspecified) | 1660 nM
Clc1ccc(CCC(Cn2ccnc2)Sc2c(Cl)cccc2Cl)cc1 (stereo unspecified) | 2110 nM
COc1ccc(/C=C(\C#N)c2ccc(OC)cc2)cc1 | 13300 nM
C=C(C)C(=O)Oc1ccc(N=Nc2ccc(C)cc2)ccc1=O | 2720 nM
COc1cc(C2=NNC(c3ccc(N(C)C)cc3)C2)cc(OC)c1OC (stereo unspecified) | 7180 nM

Numbers sourced from PubChem BioAssay (NCI).
